System: hepatocellular carcinoma (HepG2) cells
assay-details: Antiproliferative MTT assay, HepG2
Assay type: cell-based, human
particulars: Homo sapiens, HepG2, 72 h, 72 h incubation, MTT; mean ± SD
Experimental: […] Newly synthesized compounds were evaluated for their cytotoxic activity in vitro against four human cancer cell lines, including human breast adenocarcinoma (MCF-7), ductal pancreatic adenocarcinoma (CFPAC-1), colorectal carcinoma (HT-29), and hepatocellular carcinoma (HepG2), as well as on non-cancerous skin fibroblasts (HFF-1), to check for non-specific toxicity. […]
IC50 less than 40 µM is t; IC50 greater than or equal to 40 µM is f.

Illustrative cases are given below, each with its answer.
OCC(c1ccc(Br)cc1)n1cc(Cn2ccc3c(Cl)ncnc32)nn1 (stereo not drawn) [Compound 44a] = f
OC(Cn1cc(Cn2cnc3c(Cl)ncnc32)nn1)c1ccc(Br)cc1 (stereo not drawn) [Compound 39b] = f

Turning now to a further molecule:
stdin: API: query returns whether the molecule falls strictly under 40 µM in IC50. Query: OC(Cn1cc(Cn2cnc3c(Cl)ncnc32)nn1)c1ccc(Cl)cc1 (stereo not drawn) [Compound 38b]
stdout: f

====

assay-details: Metabolic stability in mouse liver microsomes
Assay type: in vitro ADME
particulars: predicted in vivo hepatic clearance from mouse liver microsome t1/2, 1 µM compound
The label depends only on Clearance Values (CL): TRUE if it is at least 80%, FALSE if it is smaller.

Illustrative cases are given below, each with its answer.
OC(Cn1cc(Cn2ccc3c(Cl)ncnc32)nn1)c1ccc(Br)cc1 (stereo not shown) [Compound 44b] = TRUE
OC(Cn1cc(Cn2ccc3c(Cl)ncnc32)nn1)c1ccc(C(F)(F)F)cc1 (stereo not shown) [Compound 45b] = TRUE
OC(Cn1cc(Cn2ccc3ccccc32)nn1)c1ccc(Br)cc1 (stereo not shown) [Compound 29b] = TRUE

stdin: // inclusive: Clearance Values (CL) at least 80%? input: OC(Cn1cc(Cn2cnc3ccccc32)nn1)c1ccc(Br)cc1 (stereo not shown) [Compound 34b]
stdout: FALSE

stdin: // inclusive: Clearance Values (CL) at least 80%? input: OCC(c1ccc(Br)cc1)n1cc(Cn2ccc3ccccc32)nn1 (stereo not shown) [Compound 29a]
stdout: FALSE

stdin: // inclusive: Clearance Values (CL) at least 80%? input: OCC(c1ccc(C(F)(F)F)cc1)n1cc(Cn2ccc3c(Cl)ncnc32)nn1 (stereo not shown) [Compound 45a]
stdout: FALSE

stdin: // inclusive: Clearance Values (CL) at least 80%? input: OCC(c1ccc(Br)cc1)n1cc(Cn2ccc3c(Cl)ncnc32)nn1 (stereo not shown) [Compound 44a]
stdout: FALSE

====

Record form. Attribute: IC50. Fill in for each entry.
Test system: hepatocellular carcinoma (HepG2) cells
assay-details: Antiproliferative MTT assay, HepG2
Format: cell-based, human
particulars: Homo sapiens, HepG2, 72 h, 72 h incubation, MTT; mean ± SD
One number for each entry, in µM.

O[C@@H](Cn1cc(Cn2cnc3c(Cl)ncnc32)nn1)c1ccc(C(F)(F)F)cc1 [Compound (R)-40b] = 8
OC(Cn1cc(Cn2cnc3ccccc32)nn1)c1ccc(Br)cc1 (stereo not drawn) [Compound 34b] = 64
OCC(c1ccc(Br)cc1)n1cc(Cn2cnc3c(Cl)nccc32)nn1 (stereo not drawn) [Compound 49a] = 66

Consider the following items and state reported IC50 for each.
1. OCC(c1ccc(C(F)(F)F)cc1)n1cc(Cn2ccc3ccccc32)nn1 (stereo not drawn) [Compound 30a]
2. O[C@H](Cn1cc(Cn2ccc3c(Cl)ncnc32)nn1)c1ccc(F)cc1 [Compound (S)-42b]
3. OC(Cn1cc(Cn2ccc3ccccc32)nn1)c1ccc(Cl)cc1 (stereo not drawn) [Compound 28b]

stdout:
1: 32; 2: 49; 3: 66

Consider the following items and state reported IC50 for each.
1. OC(Cn1cc(Cn2cnc3c(Cl)ncnc32)nn1)c1ccc(C(F)(F)F)cc1 (stereo not drawn) [Compound 40b]
2. OC(Cn1cc(Cn2ccc3c(Cl)ncnc32)nn1)c1ccccc1 (stereo not drawn) [Compound 41b]

stdout:
15
50

Consider the following items and state reported IC50 for each.
1. OC(Cn1cc(Cn2cnc3c(Cl)ncnc32)nn1)c1ccccc1 (stereo not drawn) [Compound 36b]
2. OCC(c1ccc(F)cc1)n1cc(Cn2ccc3ccccc32)nn1 (stereo not drawn) [Compound 27a]
3. OCC(c1ccc(Cl)cc1)n1cc(Cn2ccc3ccccc32)nn1 (stereo not drawn) [Compound 28a]
4. O[C@H](Cn1cc(Cn2ccc3c(Cl)ncnc32)nn1)c1ccc(C(F)(F)F)cc1 [Compound (S)-45b]
5. O[C@@H](Cn1cc(Cn2cnc3c(Cl)ncnc32)nn1)c1ccc(F)cc1 [Compound (R)-37b]

stdout:
1: 41; 2: 49; 3: 32; 4: 23; 5: 64

stdin: Provide the documented IC50 with hepatocellular carcinoma (HepG2) cells as the system for OC(Cn1cc(Cn2ccc3c(Cl)ncnc32)nn1)c1ccc(Br)cc1 (stereo not drawn) [Compound 44b]
stdout: 32

====

System: pancreatic ductal adenocarcinoma (CFPAC-1) cells
assay-details: Antiproliferative MTT assay, CFPAC-1
Type: cell-based, human
particulars: SI = [IC50 HFF]/[IC50 CFPAC-1]
SI (CFPAC-1) less than 0.9 is rule met; SI (CFPAC-1) greater than or equal to 0.9 is rule not met.

Illustrative cases are given below, each with its answer.
OC(Cn1cc(Cn2ccc3ccccc32)nn1)c1ccc(Br)cc1 (centres unmarked) [Compound 29b] = rule met
OC(Cn1cc(Cn2ccc3ccccc32)nn1)c1ccc(C(F)(F)F)cc1 (centres unmarked) [Compound 30b] = rule met
OCC(c1ccc(C(F)(F)F)cc1)n1cc(Cn2ccc3c(Cl)ncnc32)nn1 (centres unmarked) [Compound 45a] = rule not met

Turning now to a further molecule:
stdin: API: query returns whether the molecule falls strictly under 0.9 in SI (CFPAC-1). Query: OCC(c1ccc(Cl)cc1)n1cc(Cn2ccc3ccccc32)nn1 (centres unmarked) [Compound 28a]
stdout: rule not met

====

System: pancreatic ductal adenocarcinoma (CFPAC-1) cells
assay-details: Antiproliferative MTT assay, CFPAC-1
Type: cell-based, human
particulars: SI = [IC50 HFF]/[IC50 CFPAC-1]
assay-endpoint: SI (CFPAC-1)
Numbers only.

Some entries whose results are on file:
O[C@H](Cn1cc(Cn2ccc3c(Cl)ncnc32)nn1)c1ccc(C(F)(F)F)cc1 [Compound (S)-45b] = 1.0
OC(Cn1cc(Cn2ccc3c(Cl)ncnc32)nn1)c1ccc(Br)cc1 (stereo not drawn) [Compound 44b] = 1.8
OCC(c1ccc(Br)cc1)n1cc(Cn2cnc3ccccc32)nn1 (stereo not drawn) [Compound 34a] = 2.8
O[C@H](Cn1cc(Cn2ccc3c(Cl)ncnc32)nn1)c1ccc(F)cc1 [Compound (S)-42b] = 5.6
OC(Cn1cc(Cn2cnc3ccccc32)nn1)c1ccc(Br)cc1 (stereo not drawn) [Compound 34b] = 4.0
O[C@H](Cn1cc(Cn2ccc3c(Cl)ncnc32)nn1)c1ccc(Cl)cc1 [Compound (S)-43b] = 1.3

Next:
stdin: Sample OCC(c1ccc(F)cc1)n1cc(Cn2ccc3c(Cl)ncnc32)nn1 (stereo not drawn) [Compound 42a] — what was its SI (CFPAC-1)?
stdout: 1.4

====

Test system: P-glycoprotein (human MDR1)
assay-details: MDCKII-MDR1 permeability assay
Format: in vitro ADME, canine cells with over-expressed human MDR1 gene
particulars: dog, MDCK-MDR1; <2 no efflux, >2 active efflux
Record form. Attribute: efflux ratio at 60 min, 10 µM. Fill in for each entry.
Give bare numbers.

Some entries whose results are on file:
OC(Cn1cc(Cn2ccc3c(Cl)ncnc32)nn1)c1ccc(Br)cc1 (stereo not drawn) [Compound 44b] = 2.5
OC(Cn1cc(Cn2cnc3ccccc32)nn1)c1ccc(Br)cc1 (stereo not drawn) [Compound 34b] = 17.2
OC(Cn1cc(Cn2cnc3c(Cl)ncnc32)nn1)c1ccc(Br)cc1 (stereo not drawn) [Compound 39b] = 22.5
OCC(c1ccc(Br)cc1)n1cc(Cn2cnc3ccccc32)nn1 (stereo not drawn) [Compound 34a] = 32.8
OCC(c1ccc(Br)cc1)n1cc(Cn2ccc3c(Cl)ncnc32)nn1 (stereo not drawn) [Compound 44a] = 6.2
OCC(c1ccc(Br)cc1)n1cc(Cn2cnc3c(Cl)nccc32)nn1 (stereo not drawn) [Compound 49a] = 41.4
O[C@@H](Cn1cc(Cn2cnc3c(Cl)ncnc32)nn1)c1ccc(C(F)(F)F)cc1 [Compound (R)-40b] = 21
OCC(c1ccc(C(F)(F)F)cc1)n1cc(Cn2ccc3c(Cl)ncnc32)nn1 (stereo not drawn) [Compound 45a] = 8.8

Next:
stdin: Sample OCC(c1ccc(Br)cc1)n1cc(Cn2ccc3ccccc32)nn1 (stereo not drawn) [Compound 29a] — what was its efflux ratio at 60 min, 10 µM?
stdout: 2.6

====

Test system: P-glycoprotein (human MDR1)
assay-details: MDCKII-MDR1 permeability assay
Type: in vitro ADME, canine cells with over-expressed human MDR1 gene
particulars: dog, MDCK-MDR1; 10 µM, 60 min, 37 °C
assay-endpoint: Papp B→A at 60 min, 10 µM (×10⁻⁶ cm/s)
Answers are plain numbers, in ×10⁻⁶ cm/s.

Consider the following items and state reported Papp B→A at 60 min, 10 µM for each.
1. O[C@@H](Cn1cc(Cn2cnc3c(Cl)ncnc32)nn1)c1ccc(C(F)(F)F)cc1 [Compound (R)-40b]
2. OC(Cn1cc(Cn2cnc3c(Cl)nccc32)nn1)c1ccc(Br)cc1 (stereo not drawn) [Compound 49b]
3. OCC(c1ccc(Br)cc1)n1cc(Cn2cnc3ccccc32)nn1 (stereo not drawn) [Compound 34a]
4. OCC(c1ccc(Br)cc1)n1cc(Cn2ccc3c(Cl)ncnc32)nn1 (stereo not drawn) [Compound 44a]
5. OCC(c1ccc(C(F)(F)F)cc1)n1cc(Cn2ccc3c(Cl)ncnc32)nn1 (stereo not drawn) [Compound 45a]
6. OC(Cn1cc(Cn2ccc3c(Cl)ncnc32)nn1)c1ccc(Br)cc1 (stereo not drawn) [Compound 44b]

stdout:
45.2
36.9
65.7
67.4
66.4
62.7
